biological target: human D2 receptor (Homo sapiens, UniProt P14416); construct: host or cells: CHO-K1; assay: Dopamine assay: functional cAMP read-out (HitHunter cAMP XS+, Gi/o agonist format); type: cell-based; conditions: EC50 at the D2 receptor, CHO-K1 cells overexpressing the human D2 receptor, cAMP read-out, 25 µM forskolin, n = 2 independent experiments
Sequence (P14416 whole entry): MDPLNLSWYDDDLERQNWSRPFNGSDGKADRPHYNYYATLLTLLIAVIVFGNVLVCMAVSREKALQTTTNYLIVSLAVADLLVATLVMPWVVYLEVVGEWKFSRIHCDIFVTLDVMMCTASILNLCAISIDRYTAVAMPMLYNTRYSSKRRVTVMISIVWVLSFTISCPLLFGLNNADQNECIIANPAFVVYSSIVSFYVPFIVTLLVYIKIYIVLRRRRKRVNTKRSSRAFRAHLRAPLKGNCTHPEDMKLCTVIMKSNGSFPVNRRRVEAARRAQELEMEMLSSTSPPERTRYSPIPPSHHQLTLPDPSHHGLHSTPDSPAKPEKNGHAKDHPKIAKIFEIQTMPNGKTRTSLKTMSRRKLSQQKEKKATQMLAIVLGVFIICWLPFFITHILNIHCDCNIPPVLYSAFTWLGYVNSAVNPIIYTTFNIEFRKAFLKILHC
Exercise: state measured EC50 for each of the molecules provided.
Enter your answer as a number in µM; do not include the unit.

**Query** GET /values?readout=EC50&item= C[C@H]1[C@H](C)CC[C@]2(C(=O)O)CC[C@]3(C)C(=CC[C@@H]4[C@@]5(C)C[C@@H](O)[C@@H](O)C(C)(C)[C@@H]5CC[C@]43C)[C@H]12 [compound 9, 3-epi-Corosolic acid]
**Result** 10.7

**Query** Can you share its EC50? I mean this molecule: CC1(C)CC[C@]2(C(=O)O)CC[C@]3(C)C(=CC[C@@H]4[C@@]5(C)C[C@@H](O)[C@H](O)C(C)(C)[C@@H]5CC[C@]43C)[C@@H]2C1
**Result** 21.3

Reference source: paper PMC11547015
